Biological target: human IGF-1R, native, on cells (MCF-7, hIGF-1R transfected cells, primary normal human cells) (human, UniProt P08069 31-1367)
Assay: cell-based or functional assay
Property: MCF7 internalisation assay: Δ (MFI 4°C - MFI 37°C); scope: individual binders
Provide only the numeric value, understood in MFI.

>>> experimentalvalue("murine antibody 213B10 (hybridoma CNCM I-4774) (antibody, V domains shown, also called m213B10) VH: QVQLQQSGSELVKPGASVKMSCKASGYTFTSYYIHWVKQRPGQGLEWIGWIWPGDGSTKYNERFKGKTTLTADKSSSTAYMFLSSLTSEDSAVYFCASPMITPNYAMDYWGQGASVTVSS VL: DIQMTQTTSSLSASLGDRVTISCRASQDISKYLNWYQQQPDGTIKLLIYYTSRLHSGVPSRFSGRGSGTDYSLTITNLEQEDIATYFCQQGSALPYTFGGGTKLEIK")
271

Enquiry: Given the binder murine antibody 219D6 (hybridoma CNCM I-4736) (antibody, V domains shown, also called m219D6) VH: QVQLQQSGPELVKPGDSVKMSCKASGYSFTSYFIHWVKQRPGQGLEWIGWIWPGDGSTKYNEKFKGKTTLTTDKSSSTAYMFLNSLTSEDSAVYFCASPMITPNYAMDYWGQGASVTVSS VL: DIQMTQTTSSLSASLGDRVTISCRASQDISKYLNWYQQQPDGTVKLLIYYTSRLHSGVPSRFSGRGSGTDYSLTISNLEQEDIATYFCQQGSTLPYTFGGGTKLEIK , what is its reported MCF7 internalisation assay: Δ (MFI 4°C - MFI 37°C)?
Return: 243

Enquiry: Given the binder murine antibody 208F2 (hybridoma CNCM I-4757) (antibody, V domains shown, also called m208F2) VH: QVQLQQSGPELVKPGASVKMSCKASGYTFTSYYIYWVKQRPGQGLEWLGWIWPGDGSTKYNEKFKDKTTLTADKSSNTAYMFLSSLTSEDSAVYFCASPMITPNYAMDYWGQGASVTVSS VL: DIQMTQTTSSLSASLGDRVTISCRASQDISKYLNWYQQQPDGTIKLLIYYTSRLHSGVPSRFSGRGSGTDYSLTISNVEQEDIATYFCQQGSTLPYTFGGGTKLEIK , what is its reported MCF7 internalisation assay: Δ (MFI 4°C - MFI 37°C)?
Return: 261

Enquiry: Given the binder murine antibody 214F8 (hybridoma CNCM I-4775) (antibody, V domains shown, also called m214F8) VH: QVQLQQSGSELVKPGASVKLSCKASGYTFTSYYIHWVKQRPGQGLEWIGWIWPGDGSTKYNERFKGKTTLTADKSSSTAYMFLSSLTSEDSAVYFCASPMITPNYAMDYWGQGASVTVSS VL: DIQMTQTTSSLSASLGDRVTFSCRASQDISKYLNWYQQQPDGTIKLLIYYTSRLHSGVPSRFSGRGSGTDYSLTITNLEQEDIATYFCQQGSALPYTFGGGTKLEIK , what is its reported MCF7 internalisation assay: Δ (MFI 4°C - MFI 37°C)?
Return: 275
